Reported values of protein stability index for individual entries
B1: SPSB4 (parent)
chain: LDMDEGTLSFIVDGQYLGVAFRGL

Variants of: B1
protocol.summary: protein stability index of a GFP-peptide fusion (GPS, HEK-293T) (PSI 1-6); higher = more stable;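 further: lentivirally expressed fusions sorted by FACS into six bins by GFP to DsRed ratio, PSI derived from sequencing read proportions per bin multiplied by bin number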
condition.notes: c terminus: a fixed tail appended
test.readout: protein stability index

V19C | 2.33
E5S | 2.79
E5M | 2.56
L24N | 2.19
F10G | 1.5
I11W | 1.56
E5I | 3.72
T7F | 1.81
R22Y | 3.56
L1Y | 1.32
V19E | 1.85
